Would you kindly list pKd for each of these binders?
Biological target: T1, cynoSIRPα (NP_001271679), Extracellular Domain + His-Tag (cynomolgus monkey)
T1 construct: also called CySIRPα NP_001271679; not shown: His-Tag
T1 chain: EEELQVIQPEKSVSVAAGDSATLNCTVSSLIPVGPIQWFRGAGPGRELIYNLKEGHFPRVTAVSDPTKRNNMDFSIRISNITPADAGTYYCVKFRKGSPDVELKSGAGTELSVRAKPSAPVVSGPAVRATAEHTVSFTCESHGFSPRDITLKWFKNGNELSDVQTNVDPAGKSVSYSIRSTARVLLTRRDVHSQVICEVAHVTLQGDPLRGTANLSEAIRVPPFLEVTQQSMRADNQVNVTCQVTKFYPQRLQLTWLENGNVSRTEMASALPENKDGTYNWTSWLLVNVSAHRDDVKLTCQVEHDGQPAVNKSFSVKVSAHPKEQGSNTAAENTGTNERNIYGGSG
Experiment: SPR, antibody captured on Protein A/G, ECD-His analyte, 1:1 fit
Answers are plain numbers, as −log10 of the molar value.

Value sought for every listed binder: pKd.
1. Antibody E14 (antibody, human IgG1, kappa, L234A L235A, V domains shown) VH: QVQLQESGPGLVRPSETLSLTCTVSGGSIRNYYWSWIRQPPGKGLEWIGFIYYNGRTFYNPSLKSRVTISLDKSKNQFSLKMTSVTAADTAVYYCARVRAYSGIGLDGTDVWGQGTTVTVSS VL: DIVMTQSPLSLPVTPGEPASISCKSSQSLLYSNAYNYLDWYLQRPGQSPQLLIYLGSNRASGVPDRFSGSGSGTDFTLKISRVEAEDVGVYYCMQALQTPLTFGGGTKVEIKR
2. Antibody E19 (antibody, human IgG1, kappa, L234A L235A, V domains shown) VH: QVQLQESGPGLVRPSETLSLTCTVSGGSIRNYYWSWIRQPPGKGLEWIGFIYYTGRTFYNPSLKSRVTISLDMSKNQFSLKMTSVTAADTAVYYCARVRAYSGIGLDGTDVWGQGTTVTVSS VL: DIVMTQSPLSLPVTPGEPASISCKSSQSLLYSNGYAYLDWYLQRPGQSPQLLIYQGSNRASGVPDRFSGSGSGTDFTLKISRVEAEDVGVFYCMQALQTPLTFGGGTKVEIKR

1: 7.04; 2: 7.33
